Tested on: Candida albicans
Details: Concentration 32 ug.mL-1; ASSAY_TEST Inhibition of Fungal Growth; detection method Absorption (OD530)
Description: Antifungal activity against Candida albicans ATCC 90028 (CO-ADD:FG_001); MIC in YNB media using NBS plates, by OD630
Results with a measured potency or affinity are listed apart.
Would you mind telling me the reported Inhibition of each entry?
Give bare numbers, in %.

Solved cases (3 shown):
CN(C(=O)Cn1nc2nc(Nc3ccc(F)cc3)ccn2c1=O)c1ccccc1 | 3.9
O=c1c2sccc2n2c(=O)n(Cc3cccc(F)c3)nc2n1Cc1cccs1 | 36.13
Cc1ccc(Oc2nccn3c(=O)n(CC(=O)Nc4ccc(C)cc4Br)nc23)cc1 | 0.3

Give one value of Inhibition per listed compound.
1. O=C(Cn1nc2c3cc(-c4ccc(Cl)cc4)nn3ccn2c1=O)Nc1ccc2c(c1)OCCO2
2. Cc1ccc(NC(=O)Cn2nc3c(Sc4ccccc4)nccn3c2=O)c(Br)c1
3. O=C(CSc1nnc2c(=O)n(-c3ccc(F)c(F)c3)ccn12)c1c[nH]c2ccccc12
4. COc1cccc(Sc2nc3ccccc3n3c(=O)n(CC(=O)Nc4cccc(C#N)c4)nc23)c1
5. Cc1[nH]c2ccccc2c1C(=O)CSc1nnc2c(=O)n(-c3ccc(F)c(F)c3)ccn12
6. Cc1ccc(Oc2nccn3c(=O)n(CC(=O)Nc4ccc(Cl)cc4F)nc23)cc1
7. CC(C)NC(=O)Cn1nc2nc(Nc3ccc(F)cc3)ccn2c1=O

[-1.89, 22.67, 22.97, 14.41, 1.72, 4.29, 2.08]

---

Tested on: Klebsiella pneumoniae
Settings: Concentration 32 ug.mL-1;; ASSAY_TEST Inhibition of Bacterial Growth; detection method Absorption (OD600); MEDIA CAMHB; plate type 384well; NBS; CORNING #3640; time 18 hr
Description: Antibacterial activity against Klebsiella pneumoniae MDR ATCC 70063 (CO-ADD:GN_003); MIC in CAMBH media using NBS plates, by OD(600)
Measured potencies and affinities stand elsewhere.
Would you mind telling me the reported Inhibition of each entry?
One number for each entry, in %.

CCc1ccc(N(Cc2ccc(C)cc2)S(=O)(=O)c2cccn3c(CC)nnc23)cc1 | 2.26
Cc1ccc(NC(=O)Cn2nc3c(Oc4cccc(C)c4C)nccn3c2=O)c(Br)c1 | 10.09

Give one value of Inhibition per listed molecule.
1. O=S(=O)(c1cccn2cnnc12)N(Cc1ccc(F)cc1)c1ccc(F)c(F)c1
2. Cc1ccc(-c2ccc3nnc(CCC(=O)N4CCN(C(=O)c5ccco5)CC4)n3n2)cc1C
3. Cc1cccc(N(Cc2cccc(F)c2)S(=O)(=O)c2cccn3c(C)nnc23)c1

[4.99, 19.25, 14.45]

Give one value of Inhibition per listed molecule.
1. COc1cc(OC)c(NC(=O)Cn2nc3ccc(Sc4cccc(F)c4)nn3c2=O)cc1Cl
2. COc1ccccc1Cn1c(=O)c2sccc2n2c(=O)n(Cc3cccc(Br)c3)nc12
3. COc1ccc(N(Cc2ccc(C)cc2)S(=O)(=O)c2ccc3nnc(C)n3c2)cc1
4. CCc1nnc2c(=O)n(CC(=O)Nc3cccc(C#N)c3)c3ccccc3n12
5. O=S(=O)(c1cccn2cnnc12)N(Cc1cccc(Cl)c1)c1ccc(F)cc1

1. 2.02
2. 0.7
3. -1.06
4. 9.63
5. 7.99

---

Would you mind telling me the reported Inhibition of each entry?
Test system: Candida albicans
Details: Concentration 32 ug.mL-1; ASSAY_TEST Inhibition of Fungal Growth; detection method Absorption (OD530)
Entries with a potency or affinity are not part of this list.
Please don't drop the unit; write it after the number.

Solved cases (2 shown):
CSc1cccc(NC(=O)Cn2nc3c(SCc4ccc(Cl)cc4)nccn3c2=O)c1 | 19.01%
COc1ccc(CN(c2ccc(OC)cc2)S(=O)(=O)c2ccc3nnc(C)n3c2)cc1 | 0.4%

Give one value of Inhibition per listed compound.
1. O=C(Cn1nc2c3sc(N4CCCC4)nc3ncn2c1=O)Nc1ccccc1Cl
2. Cc1ccc(-c2cc3c4nn(CC(=O)Nc5ccccc5Cl)c(=O)n4ccn3n2)cc1
3. COc1ccccc1NC(=O)Cn1nc2c(SCc3ccccc3)nccn2c1=O
4. CCOC(=O)c1cccc(NC(=O)Cn2nc3c4cc(-c5ccc(C)c(C)c5)nn4ccn3c2=O)c1
5. CCc1cccc(NC(=O)Cn2nc3c(SC4CCCCC4)nccn3c2=O)c1

["4.36%", "0.36%", "5.7%", "21.87%", "12%"]

---

Test system: Candida albicans
Conditions: Concentration 32 ug.mL-1; ASSAY_TEST Inhibition of Fungal Growth; detection method Absorption (OD530)
Results with a measured potency or affinity are listed apart.
Would you mind telling me the reported Inhibition of each entry?
Numbers only, in %.

Solved cases (5 shown):
CCOc1ccc(-n2ccn3c(SCC(=O)c4ccc(C)cc4)nnc3c2=O)cc1 | 1.13
COc1ccc(CCn2c(=O)c3sccc3n3c(=O)n(Cc4c(F)cccc4Cl)nc23)cc1OC | -1.61
COc1ccc(CN(c2ccc(C(C)C)cc2)S(=O)(=O)c2cccn3cnnc23)cc1 | 1.9
CCC(C)NC(=O)CCn1c(=O)c2ccccc2n2c(=O)n(CC(=O)NCc3cccs3)nc12 (stereo not given) | 0.11
COc1cccc(Oc2nccn3c(=O)n(CC(=O)NCc4cccs4)nc23)c1 | 0.8

Give one value of Inhibition per listed molecule.
1. COc1cccc(-n2ccn3c(SCc4cccc(C)c4)nnc3c2=O)c1
2. Cc1cccc(N(Cc2ccc(F)cc2)S(=O)(=O)c2cccn3c(C)nnc23)c1
3. Cc1ccc2c(c1)N(C(=O)Cn1nc3ccc(SC(C)(C)C)nn3c1=O)CCO2
4. COc1cccc(NC(=O)Cn2nc3c(Oc4cccc(OC)c4)nccn3c2=O)c1
5. Cc1ccc(NC(=O)Cn2nc3c(Oc4ccccc4C)nccn3c2=O)cc1F
6. CCCCc1ccc(NC(=O)CSc2nnc3c4cc(-c5ccc(C)cc5)nn4ccn23)cc1
7. COc1ccc(N(Cc2cc(F)cc(F)c2)S(=O)(=O)c2ccc3nnc(C)n3c2)cc1
8. Cc1cccc(NC(=O)c2ccc3nn(CC(=O)N4CCc5ccccc5C4)c(=O)n3c2)c1

3.62
3.26
9.3
3.44
-0.61
0.26
0.79
12.37

Give one value of Inhibition per listed molecule.
1. CCOc1ccc(-c2nc(CSc3nc4ccccc4n4c(C)nnc34)c(C)o2)cc1
2. CC(C)CCNC(=O)Cn1nc2n(CC(C)C)c(=O)c3sccc3n2c1=O
3. Cc1ccc(CN(c2ccc(C(C)C)cc2)S(=O)(=O)c2cccn3c(C)nnc23)cc1
4. O=S(=O)(c1cccn2cnnc12)N(Cc1ccc(F)cc1)c1ccc(F)cc1

[1.94, -0.63, 1.03, 2.44]

---

Test system: Cryptococcus neoformans
Details: Concentration 32 ug.mL-1; ASSAY_TEST Inhibition of Fungal Growth; detection method Resazurin; Absorption (OD600-OD570); plate type 384well; NBS; CORNING #3640
Description: Antifungal activity against Cryptococcus neoformans H99 ATCC 208821 (CO-ADD:FG_002); MIC in YNB media using NBS plates, by Resazurin OD(600-570)
Potency and affinity values are given separately.
Observed Property: Inhibition (%)
One number for each entry, in %.

COc1ccc(NC(=O)Cn2nc3ccc(-c4ccccc4)nn3c2=O)cc1 | -8.43

Give one value of Inhibition per listed compound.
1. CC1CCCN(c2nccn3c(=O)n(CC(=O)Nc4ccc(Br)cc4F)nc23)C1 (stereo not given)
2. COc1ccc(OC)c(NC(=O)Cn2nc3c4cc(-c5ccc(Cl)cc5)nn4ccn3c2=O)c1
3. COc1ccc(CN(c2ccc(C(C)C)cc2)S(=O)(=O)c2cccn3cnnc23)cc1
4. Cc1nnc2c(SCC(=O)Nc3cccc(Br)c3)nc3ccccc3n12
5. COc1ccccc1N1CCN(C(=O)Cn2nc3ccc(-c4ccc(C)c(C)c4)nn3c2=O)CC1
6. COc1ccc(NC(=O)CSc2nc3ccccc3n3cnnc23)cc1OC
7. CCOC(=O)c1ccccc1NC(=O)Cn1nc2ccc(Sc3ccc(C)cc3)nn2c1=O

-8.97
-21.9
-7.62
-3.71
-3.44
-35.7
-9.49

---

Would you mind telling me the reported Inhibition of each entry?
System: Cryptococcus neoformans
Conditions: Concentration 32 ug.mL-1; ASSAY_TEST Inhibition of Fungal Growth; detection method Resazurin; Absorption (OD600-OD570); plate type 384well; NBS; CORNING #3640
Measured potencies and affinities stand elsewhere.
Please don't drop the unit; write it after the number.

Solved cases (6 shown):
CCOc1ccccc1CNC(=O)CCc1nnc2ccc(-c3ccc(C)cc3)nn12 | -5.38%
CCCN(C)c1nccn2c(=O)n(CC(=O)Nc3ccc(OC)c(Cl)c3)nc12 | -3.69%
Cc1cc2nn(CC(=O)Nc3cc(F)ccc3C)c(=O)n2c(Nc2ccc(F)c(C)c2)n1 | -9.62%
Cc1nnc2ccc(S(=O)(=O)N(Cc3ccccc3F)c3cccc(Cl)c3)cn12 | -11.57%
Cc1ccc(Sc2nccn3c(=O)n(CC(=O)Nc4c(C)cc(C)cc4C)nc23)c(C)c1 | -21.38%
NC(=O)C1CCN(C(=O)CCc2nnc3c(N4CCCCC4)nc4ccccc4n23)CC1 | -5.85%

Give one value of Inhibition per listed molecule.
1. CC(C)c1ccc(N(Cc2cccc(Cl)c2)S(=O)(=O)c2cccn3cnnc23)cc1
2. CCCCc1ccc(NC(=O)Cn2nc3c(N4CCSCC4)nc4ccccc4n3c2=O)cc1
3. Cc1oc(-c2ccccc2)nc1CSc1nc2ccccc2n2c(C)nnc12
4. COc1cccc(-n2ccn3c(SCC(=O)c4c[nH]c5ccc(OC)cc45)nnc3c2=O)c1
5. Cc1ccc(-c2ccc3nn(CC(=O)Nc4ccc(Br)cc4F)c(=O)n3n2)cc1

["-7.96%", "-24.44%", "-6.62%", "-34.12%", "-13.83%"]
